Reference for the values: patent US20230357233A1

As shown below, each of these compounds has a reported GI50 value.
biological target: Ba/F3_KRAS^G12D cells (Homo sapiens, UniProt P01116, G12D, cells depend on it); test: Ba/F3 KRAS^G12D cell proliferation assay (cell-titer Glo); type: cell-based; details: cell growth inhibition, treated with the compounds for 3 days, read-out: BaF3_KRAS^G12D IC50
Sequence (P01116 whole entry G12D): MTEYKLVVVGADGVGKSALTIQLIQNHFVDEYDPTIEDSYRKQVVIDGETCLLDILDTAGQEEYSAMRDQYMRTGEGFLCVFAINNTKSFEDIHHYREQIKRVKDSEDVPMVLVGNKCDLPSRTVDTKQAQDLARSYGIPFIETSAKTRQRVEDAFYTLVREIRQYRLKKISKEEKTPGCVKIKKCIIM

Please review the entries below; each comes with its answer.
>>> value("Clc1cccc2cccc(-c3cc4nc(N5CCNCC5)ccc4c(OCC45CCCN4CCC5)n3)c12 [Compound 82]")
"< 0.5 µM"
>>> value("C#Cc1c(F)ccc2cc(O)cc(-c3nc(OC(C)C)c4c(N5CC6CCC(C5)N6)nc(OC[C@]56CCCN5[C@@H](CO)CC6)nc4c3F)c12 [Compound 227]")
"< 0.5 µM"
>>> value("Fc1ccccc1-c1nc2c(-c3cccnc3C3CC3)c(OCC34CCCN3CCC4)nc(N3CC4CCC(C3)N4)c2cc1F [Compound 28]")
"0.5 to 5 µM"

### Prompt Entry Clc1cccc2cccc(-c3ncc4c(N5CC6CCC(C5)N6)nc(OCC56CCCN5CCC6)cc4n3)c12 [Compound 46] has what GI50?
### Response 0.5 to 5 µM

* * *

target: recombinant human KRAS^G12D protein (Homo sapiens, UniProt P01116, G12D); assay: Temperature-dependent Fluorescence (TdF) KRAS^G12D protein binding assay; conditions: 6 μM KRAS^G12D Protein, 10 μM compound, Sypro Orange; Kd calculated from fluorescent shift
Sequence (P01116 1-188 isoform P01116-2 G12D): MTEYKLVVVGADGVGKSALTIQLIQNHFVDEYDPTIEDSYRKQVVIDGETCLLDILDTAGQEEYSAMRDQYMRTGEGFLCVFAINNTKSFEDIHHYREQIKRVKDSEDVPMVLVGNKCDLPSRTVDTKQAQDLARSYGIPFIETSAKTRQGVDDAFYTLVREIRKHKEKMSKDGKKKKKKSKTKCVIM
pKd: −log10 of the molar value.
Measured pKd accompanies every entry in the list below.

>>> value("C#Cc1cccc2cc(O)cc(-c3nc(C)c4c(N5CC6CCC(C5)N6)nc(OC[C@@]56CCCN5C[C@H](F)C6)nc4c3F)c12")
"≥ 6.30"

### Prompt Entry C[C@H]1CNCCN1c1nc(OCCN(C)C)c(-c2cccnc2C2CC2)c2nc(-c3cccc4ccccc34)c(F)cc12 , system recombinant human KRAS^G12D protein (Homo sapiens, UniProt P01116, G12D): what pKd was measured?
### Response < 5.30

### Prompt And then Oc1cc(-c2cc3nc(OC[C@@]45CCCN4C[C@H](F)C5)nc(N4CC5CCC(C4)N5)c3nn2)c2c(Cl)cccc2c1 , what is it?
### Response ≥ 6.30

### Prompt Same thing, different compound: CN1CCC[C@H]1Cn1c(=O)nc(N2CCN[C@@H](CC#N)C2)c2cnc(-c3cc(O)cc4cccc(Cl)c34)c(F)c21
### Response < 5.30

### Prompt Follow-up entry: CN(C)CCCOc1nc(N2CC3CCC(C2)N3)c2cnc(-c3cccc4ccccc34)nc2c1Cl
### Response < 5.30

### Prompt Repeat for the following compound: CN1CCC[C@H]1Cn1c(=O)nc(N2CC3CCC(C2)N3)c2cnc(-c3cc(O)cc4cccc(Cl)c34)c(F)c21
### Response < 5.30

### Prompt Consider next the compound CN1CCC[C@@H]1COc1nc(-c2cccc3ccccc23)c(F)c2nc(N3CCNCC3)ccc12 in the same way.
### Response < 5.30

* * *

target: Ba/F3_KRAS^G12D cells (Homo sapiens, UniProt P01116, G12D, cells depend on it); experiment: Ba/F3 KRAS^G12D cell proliferation assay (cell-titer Glo); assay type: cell-based; details: cell growth inhibition, treated with the compounds for 3 days, read-out: BaF3_KRAS^G12D IC50
Attribute: GI50

Example results:
>>> value("CN1CCC[C@H]1Cn1c(=O)nc(N2CC3CCC(C2)N3)c2cnc(-c3cc(O)cc4cccc(Cl)c34)c(F)c21")
"> 5 µM"
>>> value("O=c1cc2c(N3CC4CCC(C3)N4)nc(OCC34CCCN3CCC4)nc2cn1-c1cc(O)cc2cccc(Cl)c12")
"> 5 µM"
>>> value("C#Cc1c(F)ccc2cc(O)cc(-c3nc(OC(C)C)c4c(N5CC6CCC(C5)N6)nc(OC[C@]56CCCN5[C@@H](COC(=O)N(C)C)CC6)nc4c3F)c12")
"< 0.5 µM"

### Prompt So what does the record say about GI50 for C#Cc1c(F)ccc2cccc(-c3nc(OC(C)C)c4c(N5CC6CCC(C5)N6)nc(OC[C@]56CCCN5[C@@H](CO)CC6)nc4c3F)c12 ?
### Response < 0.5 µM

### Prompt Likewise for C#Cc1c(F)ccc2cc(O)cc(-c3nc(OC(C)C)c4c(N5CC6CCC(C5)N6)nc(C(F)F)nc4c3F)c12 ?
### Response < 0.5 µM

### Prompt Continue with Oc1cc(-c2nc3nc(OCC45CCCN4CCC5)nc(N4CC5CCC(C4)N5)c3cc2Cl)c2ccccc2c1
### Response > 5 µM

### Prompt What do you have for Fc1cc2c(N3CCNCC3)nc(OCC34CCCN3CCC4)nc2nc1-c1cccc2cccc(Cl)c12 ?
### Response > 5 µM
